tested on: 876862-298-R-J1-PDC complex spheroids, viability % test/control; assay: Anticancer human tumor 876862-298-R-J1-PDC patient-derived endometrial carcinoma cell line growth inhibition [CLK]; conditions: second compound 0.1 µM; first compound 10 µM; hits give low values;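 note: spheroids exposed to drugs for 7 days before readout; 100% = DMSO vehicle control wells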
EXPERIMENTAL ENDPOINT: viability, T/C (%)
Write the number in % without appending the unit.

A selection of reference data follows.
COMPOUND	SUBJECT OF TEST	EXPERIMENTAL ENDPOINT	RESULT
CC1(C)CCC(CN2CCN(c3ccc(C(=O)NS(=O)(=O)c4ccc(NCC5CCOCC5)c([N+](=O)[O-])c4)c(Oc4cnc5[nH]ccc5c4)c3)CC2)=C(c2ccc(Cl)cc2)C1 + CNC(=O)c1ccc(Nc2nc(OC3CCCC3)c3c(-c4ccc5nc(C)oc5c4)c[nH]c3n2)c(OC)c1	876862-298-R-J1-PDC complex spheroids, viability % test/control	viability, T/C	11.8
COC1C=CCC(C)C(C)S(=O)(=O)NC(=O)c2ccc3c(c2)N(CC2CCC21)CC1(CCCc2cc(Cl)ccc21)CO3 (stereo unspecified) + CNC(=O)c1ccc(Nc2nc(OC3CCCC3)c3c(-c4ccc5nc(C)oc5c4)c[nH]c3n2)c(OC)c1	876862-298-R-J1-PDC complex spheroids, viability % test/control	viability, T/C	21.5
O=C(c1cc(Cc2n[nH]c(=O)c3ccccc23)ccc1F)N1CCN(C(=O)C2CC2)CC1 + CN1CCN(c2cc(C(=O)Nc3cc4cc(-c5cnn(C)c5)ccc4cn3)ccn2)CC1	876862-298-R-J1-PDC complex spheroids, viability % test/control	viability, T/C	35.2
CCCS(=O)(=O)Nc1ccc(F)c(C(=O)c2c[nH]c3ncc(-c4ccc(Cl)cc4)cc23)c1F + CN1CCN(c2cc(C(=O)Nc3cc4cc(-c5cnn(C)c5)ccc4cn3)ccn2)CC1	876862-298-R-J1-PDC complex spheroids, viability % test/control	viability, T/C	22.5
COc1ccc([C@@H](O)c2cc(-c3ncnc4cc(N5CCOCC5)ccc34)c(F)cc2Cl)nn1 + CNC(=O)c1ccc(Nc2nc(OC3CCCC3)c3c(-c4ccc5nc(C)oc5c4)c[nH]c3n2)c(OC)c1	876862-298-R-J1-PDC complex spheroids, viability % test/control	viability, T/C	26.8
C#Cc1c(F)ccc2cc(O)cc(-c3ncc4c(N5CC6CCC(C5)N6)nc(OCC56CCCN5CC(F)C6)nc4c3F)c12 (stereo unspecified) + CN1CCN(c2cc(C(=O)Nc3cc4cc(-c5cnn(C)c5)ccc4cn3)ccn2)CC1	876862-298-R-J1-PDC complex spheroids, viability % test/control	viability, T/C	45.4
O=c1[nH]cc(F)c(=O)[nH]1 + CN1CCN(c2cc(C(=O)Nc3cc4cc(-c5cnn(C)c5)ccc4cn3)ccn2)CC1	876862-298-R-J1-PDC complex spheroids, viability % test/control	viability, T/C	29.9
CC(CO)NC(=O)c1cc(-c2ccc(Cl)cc2)nn(-c2cnn(C)c2)c1=O (stereo unspecified) + CNC(=O)c1ccc(Nc2nc(OC3CCCC3)c3c(-c4ccc5nc(C)oc5c4)c[nH]c3n2)c(OC)c1	876862-298-R-J1-PDC complex spheroids, viability % test/control	viability, T/C	42.7

// sample Nc1ccccc1NC(=O)c1ccc(CNC(=O)OCc2cccnc2)cc1 + CN1CCN(c2cc(C(=O)Nc3cc4cc(-c5cnn(C)c5)ccc4cn3)ccn2)CC1 , its viability, T/C was 3.34

// sample Nc1ccccc1NC(=O)c1ccc(CNC(=O)OCc2cccnc2)cc1 + CNC(=O)c1ccc(Nc2nc(OC3CCCC3)c3c(-c4ccc5nc(C)oc5c4)c[nH]c3n2)c(OC)c1 , its viability, T/C was 24.9

// sample COc1ccc([C@@H](O)c2cc(-c3ncnc4cc(N5CCOCC5)ccc34)c(F)cc2Cl)nn1 + CN1CCN(c2cc(C(=O)Nc3cc4cc(-c5cnn(C)c5)ccc4cn3)ccn2)CC1 , its viability, T/C was 21.1
